assay: Human HepG2 cell viability assay in 384 well format; assay type: toxicity, cell-based; parameters: dose 125 nL, time 70.5 hour; concentration not given beside the values; settings: HepG2 cells, read-out: Inhibition
ENDPOINT: cytotoxicity at 70.5 h (%)
Dear colleague, please return just the value in %, with no unit written.

>>> readout_number("CCN1C[C@H]2CCN(Cc3ccncc3)C(=O)[C@@H]2C1")
-12
>>> readout_number("c1cc(CN2C[C@H](OCC3CCOCC3)[C@H]3COC[C@H]32)cs1")
-7.76
>>> readout_number("Cc1c(C(=O)N2CCC3(CCCN(CC4CC4)C3=O)C2)ccn1C (centres undefined)")
15.8
>>> readout_number("OC1(CNc2ccccc2)CCNCC1")
-7.62
>>> readout_number("CCOc1ccc(NC(=O)Cn2cc(I)cn2)cc1")
-18.2

Respond only with cytotoxicity at 70.5 h recorded for Cc1ncc(C)c(N2CCC(Cc3ccc(Cl)cc3)(C(=O)O)CC2)n1
-9.85

Respond only with cytotoxicity at 70.5 h recorded for CNc1nccnc1C1CN(Cc2ccc(OCC(=O)O)cc2)CCO1 (centres undefined)
-5.37

Respond only with cytotoxicity at 70.5 h recorded for COc1ccc(C)cc1NC(=O)c1c(C)cn(C)c1CC(=O)O
-11

---

Measured cytotoxicity at 70.5 h of individual entries
assay: Human HepG2 cell viability assay in 384 well format; format: toxicity, cell-based; design: dose 125 nL, time 70.5 hour; concentration not given beside the values; settings: HepG2 cells, read-out: Inhibition
Dear colleague, please return just the value in %, with no unit written.

>>> readout_number("O=C(CC1CC2(CCN(CC3CC3)CC2)Oc2ccccc21)NC1CC1 (centres undefined)")
-5.53

Respond only with cytotoxicity at 70.5 h recorded for Cc1nc(C2CCCN(C(=O)c3sccc3C3CC3)C2)no1 (centres undefined)
-8.62

Respond only with cytotoxicity at 70.5 h recorded for CCN(CCO)C[C@@H]1CN(C(=O)c2ccc(C)s2)C[C@@H]1CO
34.8

---

Measured cytotoxicity at 70.5 h of individual entries
assay: Human HepG2 cell viability assay in 384 well format; type: toxicity, cell-based; parameters: dose 125 nL, time 70.5 hour; concentration not given beside the values; details: HepG2 cells, read-out: Inhibition
Dear colleague, please return just the value in %, with no unit written.

>>> readout_number("COc1ccc(C(=O)N2C[C@@H](CN3CCCCC3)[C@@H](CO)C2)cc1Cl")
-1.81
>>> readout_number("O=C(N1CCOCC1)N1CCN(c2ccnc3ccsc23)CC1")
39.2
>>> readout_number("O=C(CC1CC1)NCc1cn2c(n1)CN(Cc1cccnc1)CC2")
-8.95
>>> readout_number("CNc1cccc(C2CCCN(C(=O)c3cscn3)C2)n1 (stereo not given)")
-8.52
>>> readout_number("Cc1cccc(CN2Cc3[nH]nc(COCc4nccs4)c3C2)n1")
-0.324

Respond only with cytotoxicity at 70.5 h recorded for Cc1ccc(NC2CCN(C(=O)c3cncnc3C)CC2)nn1
14.7

Respond only with cytotoxicity at 70.5 h recorded for Cc1cc2[nH]c(O)nc2cc1NCc1ccc(F)cc1
-10.2

Respond only with cytotoxicity at 70.5 h recorded for c1ccc(Cc2noc(CN3CCc4c(ncn4C4CC4)C3)n2)cc1
11.8

Respond only with cytotoxicity at 70.5 h recorded for O=C(NCc1nc(C2CCCCC2)no1)C1CC(=O)N(C2CCCC2)C1 (stereo not given)
-0.128

---

Measured cytotoxicity at 70.5 h of individual entries
experiment: Human HepG2 cell viability assay in 384 well format; type: toxicity, cell-based; design: dose 125 nL, time 70.5 hour; concentration not given beside the values; conditions: HepG2 cells, read-out: Inhibition
Dear colleague, please return just the value in %, with no unit written.

>>> readout_number("Cc1nc(-c2ccccc2)sc1CSC(C)C(N)=O (stereo not drawn)")
-1.25
>>> readout_number("COC(=O)[C@@H]1C[C@@H](O)CN1Cc1ccn(-c2ccc(F)cc2)n1")
-10.3

Respond only with cytotoxicity at 70.5 h recorded for Cn1cc(C(=O)NCc2cncc3c2CCN(S(C)(=O)=O)C3)cn1
0.567

---

experiment: Human HepG2 cell viability assay in 384 well format; type: toxicity, cell-based; design: dose 125 nL, time 70.5 hour; concentration not given beside the values; details: HepG2 cells, read-out: Inhibition
Measured cytotoxicity at 70.5 h of individual entries
Dear colleague, please return just the value in %, with no unit written.

Some solved entries appear below for comparison.
>>> readout_number("O=C(Cc1ccsc1)N1CCN(CC2CC2)c2ncccc2C1")
-14
>>> readout_number("CN(Cc1ccsc1)C(=O)CNC(=O)N1CCc2ccccc2C1")
-7.67

Respond only with cytotoxicity at 70.5 h recorded for Cc1cnn(CC2CCCN2C(=O)CCc2c(C)noc2Cl)c1 (stereo not drawn)
-8.81

Respond only with cytotoxicity at 70.5 h recorded for O=C(COCC(=O)N(c1ccccc1)c1ccccc1)N1CCOCC1
-5.79

Respond only with cytotoxicity at 70.5 h recorded for Fc1cccc(Cl)c1CNCCOc1ccccn1
-20.9

Respond only with cytotoxicity at 70.5 h recorded for O=C(NC1CCN(c2nccs2)CC1)c1cccs1
10.5

Respond only with cytotoxicity at 70.5 h recorded for COC(=O)c1cccc(S(=O)(=O)NC(=O)c2cccc(OC)c2OC)c1
-6.86

Respond only with cytotoxicity at 70.5 h recorded for CCC(C)(NCc1cccc(NC(C)=O)c1)c1nc(C)cs1 (stereo not drawn)
-0.722

Respond only with cytotoxicity at 70.5 h recorded for CN(Cc1nc(C2CC2)no1)C(=O)c1cccc(CC2CCNCC2)c1
-5.09

Respond only with cytotoxicity at 70.5 h recorded for CSc1ncccc1C(=O)N(C)CCc1scnc1C
-8.88

Respond only with cytotoxicity at 70.5 h recorded for O=c1ccc(-n2ccnc2)nn1CCNS(=O)(=O)c1ccc(Cl)s1
3.04

Respond only with cytotoxicity at 70.5 h recorded for O=C(c1ccncc1)N1CCC2(CCCN(c3ncc(F)cn3)C2)C1 (stereo not drawn)
-2.34

Respond only with cytotoxicity at 70.5 h recorded for CNc1cncc(C2CCCN2S(=O)(=O)c2ccccc2F)n1 (stereo not drawn)
-0.0855

Respond only with cytotoxicity at 70.5 h recorded for COCc1cc(CNC(=O)c2c(C)cc(C)[nH]c2=O)n[nH]1
-1.97

Respond only with cytotoxicity at 70.5 h recorded for CCOC(=O)[C@]12CCCN(Cc3cccs3)C[C@H]1CN(C(C)C)C2
1.55

Respond only with cytotoxicity at 70.5 h recorded for CCN(CC)C(=O)c1ccc(-n2ncc(C#N)c2N)cc1
12.9

Respond only with cytotoxicity at 70.5 h recorded for CN(C)C(=O)N1C[C@H]2CN(Cc3cccc(F)c3)C(=O)[C@H]2C1
-9.2

Respond only with cytotoxicity at 70.5 h recorded for CCOCc1nn(CC2CC2)c2c1CN(Cc1cccs1)CC2
-6.81

Respond only with cytotoxicity at 70.5 h recorded for CC(C)OCc1nn(C)c2c1CCN(Cc1ccco1)C2
-7.18

Respond only with cytotoxicity at 70.5 h recorded for O=C(c1ccccc1N1CCOCC1)N1CCCC(n2cccn2)C1 (stereo not drawn)
1.3

Respond only with cytotoxicity at 70.5 h recorded for CC/N=c1\nc(NCC)nc2n1C(O)(Nc1cccc(C)c1C)CS2 (stereo not drawn)
-6.29

Respond only with cytotoxicity at 70.5 h recorded for O=C(N[C@@H]1CNCCC[C@H]1O)c1ccc(OCCN2CCCC2)cc1
-3.24

Respond only with cytotoxicity at 70.5 h recorded for O=C1COc2cc(C(=O)N3CCCC(n4cccn4)C3)ccc2N1 (stereo not drawn)
-1.96

Respond only with cytotoxicity at 70.5 h recorded for CCC1C(=O)NCCN1c1nccc(C)n1 (stereo not drawn)
45.2

Respond only with cytotoxicity at 70.5 h recorded for COc1ccc(C(=O)N(C)Cc2cccc(C#N)c2)c(OC)c1OC
-5.18

---

experiment: Human HepG2 cell viability assay in 384 well format; assay type: toxicity, cell-based; design: dose 125 nL, time 70.5 hour; concentration not given beside the values; details: HepG2 cells, read-out: Inhibition
ENDPOINT: cytotoxicity at 70.5 h (%)
Dear colleague, please return just the value in %, with no unit written.

Some solved entries appear below for comparison.
>>> readout_number("O=C(CN1CCc2c(ncn2C2CC2)C1)NC1CC1")
-23.8
>>> readout_number("Cc1nc(CN2Cc3nccn3CC(CN3CCCC3)C2)cs1 (configuration not stated)")
-3.82
>>> readout_number("CN(C)c1nccc(C2CN(c3ccccc3)CCO2)n1 (configuration not stated)")
-4.49
>>> readout_number("Cc1cc(C)n(CC2CCCN2CCCS(=O)(=O)N(C)C)n1 (configuration not stated)")
-9.4
>>> readout_number("COc1ccc(CN(C)CCS(=O)(=O)c2ccc(Cl)cc2)cc1OC")
-12.9

Respond only with cytotoxicity at 70.5 h recorded for Cc1cccc(-c2[nH]ncc2CNCC2CCN(CC(C)O)CC2)c1 (configuration not stated)
-4.28

Respond only with cytotoxicity at 70.5 h recorded for O=C(Nc1ccc(N2CCCCC2)nc1)N1CCc2sccc2C1
16.2

Respond only with cytotoxicity at 70.5 h recorded for Cc1ccc2oc(C(=O)N3CCc4nnc(N(C)C)cc4C3)cc2n1
-3.29

Respond only with cytotoxicity at 70.5 h recorded for CCC(O)CN1CCN(C(=O)Cc2ccc(OC)cc2OC)CC1 (configuration not stated)
0.587

Respond only with cytotoxicity at 70.5 h recorded for O=C1NC(C(=O)NCc2cccnc2Oc2ccc(F)c(F)c2)CO1 (configuration not stated)
-21.4

Respond only with cytotoxicity at 70.5 h recorded for CC(O)c1cn(C2CCN(C(=O)C3(C)CCN(C)CC3)CC2)nn1 (configuration not stated)
-10.9

Respond only with cytotoxicity at 70.5 h recorded for O=C1CC[C@]2(CC[C@@H](NC3CCOC3)CC2)N1Cc1ccncc1 (some centres not stated)
-2.28
